- System: Setaria faberi (SETFA)
- Experiment: Post-Emergence Test (herbicidal, glasshouse pots)
- Type: in vivo
- Condition Description: rate 250 g/ha; evaluated after 13 days
Readout Label: Post-Emergence Test SETFA percentage damage (five-point scale)

compound_structure=CCn1c(Oc2ccc(C)cc2)cc(=O)c(C(=O)O)c1-c1ccc(Cl)c(Cl)c1 obs_value="1 (1=0-20%)"
compound_structure=CCn1c(Oc2ccc(Cl)cn2)cc(=O)c(C(=O)O)c1-c1ccc(Cl)c(Cl)c1 obs_value="4 (4=61-80%)"
compound_structure=CCn1c(Oc2ccc(C(F)(F)F)cc2)cc(=O)c(C(=O)O)c1-c1ccc(Cl)c(Cl)c1 obs_value="5 (5=81-100%)"
compound_structure=CCn1c(Oc2cnsn2)cc(=O)c(C(=O)O)c1-c1ccc(Cl)c(Cl)c1 obs_value="2 (2=21-40%)"
